assay explanation: Dissociation constant, pKa1 of compound by potentiometric method
Assay type: physicochemical
reported property: pKa
I'd appreciate a reply containing only the number, no unit.

Worked set:
molecule	reported property	test value
CC#C[C@@H](CC(=O)O)c1ccc(OCc2ccc(CN3CCC4(CCc5ccccc54)CC3)cc2)cc1	pKa	4.6
CC#C[C@@H](CC(=O)O)c1ccc(OCc2ccc(CN3CCC4(CC3)CN(C)c3ccccc34)cc2)cc1	pKa	4.3
O=C(O)C[C@@H](c1ccc(OCc2ccc3nc(-c4ccccc4)nn3c2)cc1)c1ccon1	pKa	1.9
CC#C[C@@H](CC(=O)O)c1ccc(OCc2ccc(CN3CCC4(C=Cc5ccccc54)CC3)s2)cc1	pKa	4.2
CC#C[C@@H](CC(=O)O)c1ccc(OCc2ccc(CN3CCCc4cccc(OC)c43)s2)cc1	pKa	3.4

Look at this molecule and give its reported pKa. `O=C(O)CCc1ccc(OCc2ccc(CN3CCC4(C=Cc5ccccc54)CC3)cc2)cc1F` 3.9

Param item: CC#C[C@@H](CC(=O)O)c1ccc(OCc2ccc(CN3CCC4(C=Cc5ccccc54)CC3)cc2)cc1 [LY2881835] 4.1

Param item: `CC#C[C@@H](CC(=O)O)c1ccc(OCc2ccc(CN3CCC4(CCc5ccccc54)CC3)s2)cc1` 3.4

====

tested on: UniProt O14842
assay explanation: Agonist activity at human recombinant full length GPR40 overexpressed in human HEK293 cells assessed as increase in inositol phosphate accumulation in presence of terbium cryptate-labeled anti IP1/d2-labelled IP1 measured after 120 mins by HTRF assay
Format: functional, cell-based
Here the recorded log10 EC50 is given for each entry.
Hey, these are logged values: log10 of EC50, nM being the unit before logging.

Worked set:
compound structure string	test value
CC#C[C@@H](CC(=O)O)c1ccc(OCc2ccc(CN3CCC4(C=Cc5ccccc54)CC3)cc2)cc1F	1.15
CC#C[C@@H](CC(=O)O)c1ccc(OCc2ncc(CN3CCC4(C=Cc5ccccc54)CC3)s2)cc1	1.08

Look at this molecule and give its reported log10 EC50. `CC#C[C@@H](CC(=O)O)c1ccc(OCc2ccc(CN3CCC4(CC3)CN(C)c3ccccc34)cc2)cc1` 1.08

Param item: `CC#C[C@H](CC(=O)O)c1ccc(OCc2ccc(CN3CCC4(C=Cc5ccccc54)CC3)cc2)cc1` 2.56

Param item: `CC#C[C@@H](CC(=O)O)c1ccc(OCc2ccc(CN3CCC4(C=Cc5ccccc54)CC3)c(Cl)c2)cc1` 0.69

Param item: `O=C(O)CCc1ccc(OCc2ccc(CN3CCC4(C=Cc5ccccc54)CC3)cc2)cc1Cl` 1.93

Param item: `CC#C[C@@H](CC(=O)O)c1ccc(OCc2ccc(CN3CCC4(CC3)CN(C)c3ccc(OC)cc34)cc2)cc1` 1.36

====

assay explanation: Oral bioavailability in rat at 10 mg/kg by LC/MS/MS analysis
Format: ADME, organism-based
cond: in vivo
reported property: bioavailability

Look at this compound and give its reported bioavailability. CC#C[C@@H](CC(=O)O)c1ccc(OCc2ccc(CN3CCC4(C=Cc5ccccc54)CC3)cc2)cc1 [LY2881835] 71%

====

tested on: Free fatty acid receptor 1 (Homo sapiens)
assay explanation: Agonist activity at human recombinant full length GPR40 overexpressed in human HEK293 cells assessed as increase in inositol phosphate accumulation in presence of terbium cryptate-labeled anti IP1/d2-labelled IP1 measured after 120 mins by HTRF assay
Type: functional, cell-based
reported property: pEC50
Hey, just a heads up that pEC50 is the negative log base 10 of the concentration in molar.

molecule	test value
CC#C[C@@H](CC(=O)O)c1ccc(OCc2cnc(CN3CCC4(C=Cc5ccccc54)CC3)s2)cc1	8.28
CC#C[C@@H](CC(=O)O)c1ccc(OCc2ccc(CN3CCC4(C=Cc5ccccc54)CC3)o2)cc1	7.66
CC#C[C@@H](CC(=O)O)c1ccc(OCc2ccc(CN3CCC4(CC3)CN(C)c3ccc(C)cc34)cc2)cc1	8.46
CC#C[C@@H](CC(=O)O)c1ccc(OCc2ccc(CN3CCC4(CC3)CN(C)c3ccc(C(F)(F)F)cc34)cc2)cc1	8.33
CC#C[C@@H](CC(=O)O)c1ccc(OCc2ccc(CN3CCC4(CC3)CC(=O)c3ccccc3O4)cc2)cc1	8.08

Look at this molecule and give its reported pEC50. `O=C(O)C[C@@H](c1ccc(OCc2ccc3nc(-c4ccccc4)nn3c2)cc1)c1ccon1` 7.17

Param item: CC#C[C@@H](CC(=O)O)c1ccc(OCc2ccc(CN3CCC4(C=Cc5ccccc54)CC3)cc2)cc1 [LY2881835] 8.92

Param item: `CC#C[C@@H](CC(=O)O)c1ccc(OCc2ccc(CN3CCC4(CCc5ccccc54)CC3)cc2)cc1` 8.21

====

tested on: Free fatty acid receptor 1 (Homo sapiens, UniProt O14842)
Sequence (O14842 whole entry): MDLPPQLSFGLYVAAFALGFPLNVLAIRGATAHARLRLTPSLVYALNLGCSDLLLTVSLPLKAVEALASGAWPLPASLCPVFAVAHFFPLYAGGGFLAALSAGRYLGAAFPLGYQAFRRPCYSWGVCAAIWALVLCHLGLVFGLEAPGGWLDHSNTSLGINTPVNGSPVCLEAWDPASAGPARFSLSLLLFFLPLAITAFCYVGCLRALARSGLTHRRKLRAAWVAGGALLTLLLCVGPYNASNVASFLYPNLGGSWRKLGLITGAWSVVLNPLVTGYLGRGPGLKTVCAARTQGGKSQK
assay explanation: Agonist activity at human recombinant full length GPR40 overexpressed in human HEK293 cells assessed as increase in intracellular calcium level measured over 3 mins by calcium 4 dye based FLIPR assay
Type: functional, cell-based
pEC50: −log10 of the molar value.
Rule: pEC50 under 8 gives No, otherwise Yes.

compound structure string	tested on	category
CC#C[C@@H](CC(=O)O)c1ccc(OCc2ccc(CN3CCC4(C=Cc5ccccc54)CC3)o2)cc1	Free fatty acid receptor 1 (Homo sapiens, UniProt O14842)	Yes
CC#C[C@@H](CC(=O)O)c1ccc(OCc2ccc(CN3CCC4(CC3)CN(C)c3ccc(C)cc34)cc2)cc1	Free fatty acid receptor 1 (Homo sapiens, UniProt O14842)	No
CC#C[C@@H](CC(=O)O)c1ccc(OCc2ccc(CN3CCC4(C=Cc5ccccc54)CC3)c(C)c2)cc1	Free fatty acid receptor 1 (Homo sapiens, UniProt O14842)	No
CC#C[C@@H](CC(=O)O)c1ccc(OCc2cc(C)c(CN3CCC4(C=Cc5ccccc54)CC3)s2)cc1	Free fatty acid receptor 1 (Homo sapiens, UniProt O14842)	Yes
CC#C[C@@H](CC(=O)O)c1ccc(OCc2ccc(CN3CCC4(CC3)CN(C)c3ccccc34)cc2)cc1	Free fatty acid receptor 1 (Homo sapiens, UniProt O14842)	No

Please examine the following record next.
Reported pEC50 reaches at least 8 for `CC#C[C@@H](CC(=O)O)c1ccc(OCc2ccc(CN3CCC4(C=Cc5ccccc54)CC3)c(Cl)c2)cc1` ? No

====

tested on: Free fatty acid receptor 1 (Mus musculus)
assay explanation: Agonist activity at Prolink-tagged mouse GPR40 fused with EA-tagged beta-arrestin expressed in human U2OS cells assessed as induction of beta-arrestin recruitment measured after 90 mins by beta-galactosidase based PathHunter assay relative to control
Assay type: cell-based
cond: filed as agonist
Here the recorded Emax is given for each entry.
Just the number in %, nothing appended.

Worked set:
compound structure string	Emax / %
O=C(O)CCc1ccc(OCc2ccc(CN3CCC4(C=Cc5ccccc54)CC3)cc2)cc1F	127
CC#C[C@@H](CC(=O)O)c1ccc(OCc2ccc(CN3CCC4(C=Cc5ccccc54)CC3)s2)cc1	119
CC#C[C@@H](CC(=O)O)c1ccc(OCc2ccc(CN3CCC4(CC3)CC(=O)c3ccccc3O4)cc2)cc1	141
O=C(O)CCc1ccc(OCc2ccc(CN3CCC4(C=Cc5ccccc54)CC3)cc2)cc1Cl	116
CC#C[C@@H](CC(=O)O)c1ccc(OCc2cnc(CN3CCC4(C=Cc5ccccc54)CC3)s2)cc1	127

Look at this compound and give its reported Emax. `CC#C[C@H](CC(=O)O)c1ccc(OCc2ccc(CN3CCC4(C=Cc5ccccc54)CC3)cc2)cc1F` 113

====

tested on: Free fatty acid receptor 1 (Homo sapiens, UniProt O14842)
assay explanation: Displacement of [3H]-TAK-875 from human recombinant full-length GPR40 expressed in human HEK293 cell membrane incubated for 2 hrs by solid scintillation counting method
Here the recorded Ki is given for each entry.
Just the number in nM, nothing appended.

compound structure string	test value
O=C(O)CCc1ccc(OCc2ccc(CN3CCC4(C=Cc5ccccc54)CC3)cc2)cc1F	68
CC#C[C@@H](CC(=O)O)c1ccc(OCc2ncc(CN3CCC4(C=Cc5ccccc54)CC3)s2)cc1	130
CC#C[C@@H](CC(=O)O)c1ccc(OCc2ccc(CN3CCC4(C=Cc5ccccc54)CC3)c(C)c2)cc1	1.3

Look at this compound and give its reported Ki. `CC#C[C@@H](CC(=O)O)c1ccc(OCc2ccc(CN3CCC4(CC3)CN(C)c3ccc(C)cc34)cc2)cc1` 14

====

tested on: UniProt:O14842
assay explanation: Agonist activity at human recombinant full length GPR40 overexpressed in human HEK293 cells assessed as increase in intracellular calcium level measured over 3 mins by calcium 4 dye based FLIPR assay relative to 100 uM linoleic acid
Assay type: functional, cell-based
cond: filed as agonist
reported property: Emax (%)
Just the number in %, nothing appended.

Worked set:
compound structure string	unit string	Emax
CC#C[C@@H](CC(=O)O)c1ccc(OCc2ccc(CN3CCC4(CCc5ccccc54)CC3)cc2)cc1	%	46
CC#C[C@H](CC(=O)O)c1ccc(OCc2ccc(CN3CCC4(C=Cc5ccccc54)CC3)cc2)cc1	%	46
CC#C[C@@H](CC(=O)O)c1ccc(OCc2ccc(CN3CCC4(C=Cc5ccccc54)CC3)c(OC)c2)cc1	%	61

Look at this compound and give its reported Emax. `CC#C[C@@H](CC(=O)O)c1ccc(OCc2ccc(CN3CCC4(CCc5ccccc54)CC3)s2)cc1` 50

Param item: `CC#C[C@@H](CC(=O)O)c1ccc(OCc2ccc(CN3CCC4(C=Cc5ccccc54)CC3)c(C)c2)cc1` 47

Param item: `CC#C[C@@H](CC(=O)O)c1ccc(OCc2ccc(CN3CCC4(C=Cc5ccccc54)CC3)o2)cc1` 59

Param item: `CC#C[C@@H](CC(=O)O)c1ccc(OCc2ccc(CN3CCC4(C=Cc5ccccc54)CC3)cc2)cc1` 62

Param item: `CC#C[C@@H](CC(=O)O)c1ccc(OCc2ncc(CN3CCC4(C=Cc5ccccc54)CC3)s2)cc1` 63
